- procedure_summary: Hygroscopicity study (water content, KF) at 25° C., 65% RH
- Type: physicochemical
- conditions: 0 day
recorded_metric: Water content of NMNH calcium salt amorphous solid (KF) (%)
Respond numerically; units are % and should not be typed.

>>> experimental_value("NC(=O)C1=CN([C@@H]2O[C@H](COP(=O)(O)O)[C@@H](O)[C@H]2O)C=CC1.[Ca+2] [NMNH calcium salt Amorphous form A]")
0.8
>>> experimental_value("NC(=O)C1=CN([C@@H]2O[C@H](COP(=O)(O)O)[C@@H](O)[C@H]2O)C=CC1.[Ca+2] [NMNH calcium salt Amorphous form D]")
1.9
>>> experimental_value("NC(=O)C1=CN([C@@H]2O[C@H](COP(=O)(O)O)[C@@H](O)[C@H]2O)C=CC1.[Ca+2] [NMNH calcium salt Amorphous form C]")
1.5

Ask | Give its Water content of NMNH calcium salt amorphous solid (KF) value. Item: NC(=O)C1=CN([C@@H]2O[C@H](COP(=O)(O)O)[C@@H](O)[C@H]2O)C=CC1.[Ca+2] [NMNH calcium salt Amorphous form B]
Reply | 1.3

###

- procedure_summary: Hygroscopicity study (water content, KF) at 25° C., 65% RH
- Format: physicochemical
- conditions: 60 days
recorded_metric: Water content of NMNH calcium salt amorphous solid (KF) (%)
Reply with just the number (in %).

Example results:
>>> experimental_value("NC(=O)C1=CN([C@@H]2O[C@H](COP(=O)(O)O)[C@@H](O)[C@H]2O)C=CC1.[Ca+2] [NMNH calcium salt Amorphous form B]")
1.3
>>> experimental_value("NC(=O)C1=CN([C@@H]2O[C@H](COP(=O)(O)O)[C@@H](O)[C@H]2O)C=CC1.[Ca+2] [NMNH calcium salt Amorphous form D]")
1.9
>>> experimental_value("NC(=O)C1=CN([C@@H]2O[C@H](COP(=O)(O)O)[C@@H](O)[C@H]2O)C=CC1.[Ca+2] [NMNH calcium salt Amorphous form C]")
1.5

Ask | Request the reported Water content of NMNH calcium salt amorphous solid (KF) associated with NC(=O)C1=CN([C@@H]2O[C@H](COP(=O)(O)O)[C@@H](O)[C@H]2O)C=CC1.[Ca+2] [NMNH calcium salt Amorphous form A]
Reply | 0.9

###

Recorded Purity (HPLC, area %) for the following compounds
- procedure_summary: Stability comparison, solids placed openly in a stability test chamber at 25° C. and 65% RH (purity by HPLC, appearance)
- Format: physicochemical
- conditions: 60 days, open, calcium salt
// units = %; emit number, no label

# count of solved cases: 3
>>> experimental_value("NC(=O)C1=CN([C@@H]2O[C@H](COP(=O)(O)O)[C@@H](O)[C@H]2O)C=CC1.[Ca+2] [NMNH calcium salt Amorphous form C]")
99.13
>>> experimental_value("NC(=O)C1=CN([C@@H]2O[C@H](COP(=O)(O)O)[C@@H](O)[C@H]2O)C=CC1.[Ca+2] [NMNH calcium salt Amorphous form D]")
99.49
>>> experimental_value("NC(=O)C1=CN([C@@H]2O[C@H](COP(=O)(O)O)[C@@H](O)[C@H]2O)C=CC1.[Ca+2] [NMNH calcium salt Amorphous form A]")
99.50

// next item, Purity (HPLC, area %) requested
Ask | Param item = NC(=O)C1=CN([C@@H]2O[C@H](COP(=O)(O)O)[C@@H](O)[C@H]2O)C=CC1.[Ca+2] [NMNH calcium salt Amorphous form B] ; retrieve measured Purity (HPLC, area %).
Reply | 99.28

###

Below, each entry is listed alongside its reported Water content of NMNH calcium salt amorphous solid (KF).
- procedure_summary: Hygroscopicity study (water content, KF) at 25° C., 65% RH
- Assay type: physicochemical
- conditions: 5 days
Write the number in % without appending the unit.

Example entries and their recorded answers appear below.
>>> experimental_value("NC(=O)C1=CN([C@@H]2O[C@H](COP(=O)(O)O)[C@@H](O)[C@H]2O)C=CC1.[Ca+2] [NMNH calcium salt Amorphous form C]")
1.6
>>> experimental_value("NC(=O)C1=CN([C@@H]2O[C@H](COP(=O)(O)O)[C@@H](O)[C@H]2O)C=CC1.[Ca+2] [NMNH calcium salt Amorphous form D]")
1.9
>>> experimental_value("NC(=O)C1=CN([C@@H]2O[C@H](COP(=O)(O)O)[C@@H](O)[C@H]2O)C=CC1.[Ca+2] [NMNH calcium salt Amorphous form A]")
0.8

Next molecule, Water content of NMNH calcium salt amorphous solid (KF) to be filled in.
Ask | So what's the measured Water content of NMNH calcium salt amorphous solid (KF) for this one? NC(=O)C1=CN([C@@H]2O[C@H](COP(=O)(O)O)[C@@H](O)[C@H]2O)C=CC1.[Ca+2] [NMNH calcium salt Amorphous form B]
Reply | 1.3

###

- procedure_summary: Stability comparison, solids placed openly in a stability test chamber at 25° C. and 65% RH (purity by HPLC, appearance)
- Assay type: physicochemical
- conditions: 5 days, open, calcium salt
- Source text: NMNH is the reduced form of NMN, sensitive to air, easily oxidized, and unstable, making it unsuitable for long-term storage and market promotion. WO2023160405(A1) reported the NMNH disodium salt compound and its crystalline and amorphous forms. […] Such stability fails to meet the shelf-life requirements for commercial products, hindering market promotion. […]
recorded_metric: Purity (HPLC, area %)
Answer in %, number only, no unit symbol.

Solved cases below.
>>> experimental_value("NC(=O)C1=CN([C@@H]2O[C@H](COP(=O)(O)O)[C@@H](O)[C@H]2O)C=CC1.[Ca+2] [NMNH calcium salt Amorphous form B]")
99.28
>>> experimental_value("NC(=O)C1=CN([C@@H]2O[C@H](COP(=O)(O)O)[C@@H](O)[C@H]2O)C=CC1.[Ca+2] [NMNH calcium salt Amorphous form D]")
99.49
>>> experimental_value("NC(=O)C1=CN([C@@H]2O[C@H](COP(=O)(O)O)[C@@H](O)[C@H]2O)C=CC1.[Ca+2] [NMNH calcium salt Amorphous form C]")
99.14

Ask | Look up Purity (HPLC, area %) for this molecule: NC(=O)C1=CN([C@@H]2O[C@H](COP(=O)(O)O)[C@@H](O)[C@H]2O)C=CC1.[Ca+2] [NMNH calcium salt Amorphous form A]
Reply | 99.50

###

- procedure_summary: Stability comparison, solids placed openly in a stability test chamber at 25° C. and 65% RH (purity by HPLC, appearance)
- Format: physicochemical
- conditions: 0 day, open, calcium salt
In this section we review reported Purity (HPLC, area %) values for a set of molecules.

>>> experimental_value("NC(=O)C1=CN([C@@H]2O[C@H](COP(=O)(O)O)[C@@H](O)[C@H]2O)C=CC1.[Ca+2] [NMNH calcium salt Amorphous form A]")
"99.51%"
>>> experimental_value("NC(=O)C1=CN([C@@H]2O[C@H](COP(=O)(O)O)[C@@H](O)[C@H]2O)C=CC1.[Ca+2] [NMNH calcium salt Amorphous form B]")
"99.28%"
>>> experimental_value("NC(=O)C1=CN([C@@H]2O[C@H](COP(=O)(O)O)[C@@H](O)[C@H]2O)C=CC1.[Ca+2] [NMNH calcium salt Amorphous form D]")
"99.50%"

// next item, Purity (HPLC, area %) requested
Ask | What does the data say about its Purity (HPLC, area %)? Entry: NC(=O)C1=CN([C@@H]2O[C@H](COP(=O)(O)O)[C@@H](O)[C@H]2O)C=CC1.[Ca+2] [NMNH calcium salt Amorphous form C]
Reply | 99.14%
